Assay: qHTS for differential inhibitors of proliferation of Plasmodium falciparum line GB4 (AID 1816);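 further: parasite growth measured after 72 h incubation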
Conditions: Plasmodium falciparum GB4 proliferation inhibition; series mostly up to 28.7 µM
Records with an inconclusive call do not appear. Active and inactive are the calls of the source. The call rests on the fitted dose curve; in most records, active means well fitted curve in the direction sought with a large enough effect; inconclusive means small, poorly fitted or top-dose-only effect, or another doubt; inactive means no such curve, though single readings can be large or run the other way.
Form entry, call: pick from 1 = active, 0 = inactive

Here's what some known entries look like.
molecule: O=C(O)CC[C@@H](C(=O)O)N1C(=O)c2ccccc2C1=O
assigned class: 0
//
molecule: O=C(Nc1ccccc1)c1cc([N+](=O)[O-])ccc1Cl
assigned class: 1

Next:
*Q* Hi, sorry to bother you, what did the test record for COc1cc(C(O)CO)ccc1OS(=O)(=O)O (stereo not drawn) ?
*A* 0
